- system.name: T1, CBX4 chromodomain (CBX4 ChD), N-terminal His6-tagged recombinant protein (UniProt O00257 8-65, limits assumed)
- T1 construct: domain: chromodomain; not shown: N-terminal His6 tag
- T1 sequence (looked up): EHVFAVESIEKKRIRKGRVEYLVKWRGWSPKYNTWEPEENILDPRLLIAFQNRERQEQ
- test.protocol: competitive fluorescence polarization (FP) assay, displacement of the FITC-labelled probe
Square brackets hold non-standard residues; d marks the D form. * marks the point of attachment. Isoxazole3carbonyl(5-Me) = Cc1cc(C(=O)*)no1; Tyr(3-Cl) = N[C@@H](Cc1ccc(O)c(Cl)c1)C(=O)O; Lys(Me3) = C[N+](C)(C)CCCC[C@H](N)C(=O)O
measured.endpoint: pIC50
As a rule, pIC50 stands for the negative log10 of the concentration, concentration in M.

Dear colleague, I am looking for the recorded pIC50 of the following binder: {Isoxazole3carbonyl(5-Me)}-[Tyr(3-Cl)]VI[Lys(Me3)]S-NH2 (Final PSL1 ligand with combined synthons) [KED97]
4.31
